Target: Polyunsaturated fatty acid lipoxygenase ALOX12 (Homo sapiens)
Assay: Inhibitors of 12-hLO (12-human lipoxygenase): Cuvette-Based Hit Assay for Validation of Followup Compounds
Conditions: purified 12-hLO, cuvette absorbance 234 nm
Experimental: The enzyme activity of 12-hLO was determined by a direct measurement of product formation by monitoring the absorbance at 234 nm in a 2 mL cuvette. […] For control experiments, 2 mL of substrate buffer (10 uM arachidonic acid / 25 mM HEPES / 0.01% (v/v) Triton X-100, pH 8.0) was aliquoted in a cuvette with a magnetic stir bar. […] 3; No change in absorbance ensured. […] 5; No change in absorbance ensured. […]
The source made the active and inactive calls. The call rests on the fitted dose curve.
The molecules listed here are annotated with their Potency.

[[record]]
molecule = "COc1ccc(C(Nc2ccccn2)c2c(NC(=O)c3ccco3)sc(C)c2C)cc1 (stereo not drawn)"
measurement = "23.2 µM (active)"

[[record]]
molecule = "CSc1ccc(S(=O)(=O)Nc2ccc(S(=O)(=O)Nc3ccc(C)cc3)cc2)cc1"
measurement = "21.1 µM (active)"

[[record]]
molecule = "Oc1ccccc1-c1cc(-c2ccc3c(c2)OCCO3)n[nH]1"
measurement = "31.3 µM (active)"

[[record]]
molecule = "Cc1[nH]nc(-c2ccc(O)cc2O)c1-c1ccc(Cl)cc1"
measurement = "19 µM (active)"

[[record]]
molecule = "Cc1ccc(S(=O)(=O)Nc2ccc(NC(=O)Nc3cccc(C(F)(F)F)c3)cc2)cc1"
measurement = "35 µM (active)"


Q. Let me know recorded Potency for COc1ccc(NC2=NCC(Cc3ccc(Br)cc3)S2)cc1 (stereo not drawn) , thanks.
A. 36.6 µM (active)

Q. Indicate the recorded Potency value for this molecule: "O=C(Nc1nnc(-c2ccc(Cl)cc2)o1)c1ccccc1Br"
A. 18.3 µM (active)

Q. Specify Potency for "COc1ccc(Cc2nc(C(=O)Nc3ccc(OC)cc3)cs2)cc1" and stop.
A. 35.8 µM (active)

Q. Provide Potency value for the following molecule: "COc1ccc2nc(NC(=O)c3cccc(OCc4c(C)noc4C)c3)sc2c1"
A. 36.7 µM (active)

Q. Annotate the molecule "Oc1ccc(C2=Nn3c(nnc3-c3ccco3)SC2)cc1O" with its measured Potency.
A. 33.3 µM (active)

Q. Specify measured Potency for "CCOc1ccc(-c2[nH]ncc2Oc2cccc(OC)c2)c(O)c1" .
A. 28.1 µM (active)

Q. Determine its reported Potency: "Oc1ccc(-c2nc(-c3ccc(O)c(O)c3)cs2)cc1"
A. 0.7 µM (active)

Q. Identify the reported Potency for the following entry. "COc1ccc(-c2[nH]ncc2-c2ccc(Cl)cc2)c(O)c1"
A. 28.6 µM (active)
